These measurements were taken from ChEMBL document CHEMBL1148626.

# Target entity: Dopamine beta-hydroxylase (Homo sapiens) (UniProt P09172)
# Sequence (P09172 whole entry): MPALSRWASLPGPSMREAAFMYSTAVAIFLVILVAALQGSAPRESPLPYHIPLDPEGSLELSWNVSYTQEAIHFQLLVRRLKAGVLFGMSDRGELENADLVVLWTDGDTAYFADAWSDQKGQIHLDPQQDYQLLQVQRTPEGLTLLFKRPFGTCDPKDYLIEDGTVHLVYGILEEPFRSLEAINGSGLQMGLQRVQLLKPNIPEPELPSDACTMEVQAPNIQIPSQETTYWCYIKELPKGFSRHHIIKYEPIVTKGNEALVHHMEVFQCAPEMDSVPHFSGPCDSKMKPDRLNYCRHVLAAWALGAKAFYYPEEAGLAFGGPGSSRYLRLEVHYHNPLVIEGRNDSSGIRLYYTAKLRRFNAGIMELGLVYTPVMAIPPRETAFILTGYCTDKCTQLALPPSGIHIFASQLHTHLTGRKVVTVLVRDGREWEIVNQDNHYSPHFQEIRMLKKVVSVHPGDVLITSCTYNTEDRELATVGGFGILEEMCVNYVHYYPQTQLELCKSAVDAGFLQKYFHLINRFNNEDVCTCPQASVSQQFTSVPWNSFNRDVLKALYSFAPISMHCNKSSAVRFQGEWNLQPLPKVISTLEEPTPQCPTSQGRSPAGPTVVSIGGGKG
# Measurement notes: Effect on DBH activity in presence of dopamine by measuring Noradrenaline level
# Type: functional
# Parameters: concentration or dose not given beside the values
Could you label it true (1) if measured Activity is 7% or higher, and false (0) otherwise?

Worked cases, answers included:
Line notation | Answer label
NCCCc1cnc(S)n1[C@H]1CCc2c(F)cc(F)cc2C1 | true (1)
CNCCc1c[nH]c(=S)n1[C@H]1COc2c(F)cc(F)cc2C1 | false (0)
NCCc1cnc(S)n1[C@H]1COc2c(cccc2[N+](=O)[O-])C1 | true (1)
NCCc1cnc(S)n1[C@H]1COc2c(cc(F)c(F)c2F)C1 | true (1)
NCCc1cnc(S)n1[C@H]1COc2ccc(O)cc2C1 | false (0)
COc1cc(Cl)c2c(c1)C[C@@H](n1c(CCN)cnc1S)CO2 | true (1)
Cl.NCCc1cnc(S)n1[C@H]1COc2c(F)cc(F)cc2C1 | false (0)
NCCc1cnc(S)n1[C@H]1COc2cc(F)c(F)cc2C1 | true (1)
COc1ccc2c(c1)C[C@@H](n1c(CCN)cnc1S)CO2 | true (1)
NCc1cnc(S)n1[C@H]1COc2ccccc2C1 | false (0)

Record NCCc1cnc(S)n1[C@H]1COc2cc(Cc3ccccc3)c(O)cc2C1 ; criterion: Activity no lower than 7%. Met?
true (1)

Also need NCCc1cnc(S)n1[C@H]1CCc2c(F)cc(F)cc2C1 , thanks.
false (0)

Also need NCc1cnc(S)n1[C@H]1COc2c(F)cc(F)cc2C1 , thanks.
false (0)

Also need NCCc1cnc(S)n1[C@H]1CCc2ccccc2C1 , thanks.
true (1)
